Listing: Kd of selected binders
# TEST SYSTEM: T1, human PSMA expressed with an N-terminal hexahistidine tag (6h.hPSMA, R&D) (human, UniProt Q04609 44-750)
# T1 construct: Bought soluble protein; also called soluble human PSMA; human PSMA protein
# T1 sequence (Q04609 other isoform, or with tags, fused parts or gaps limits assumed): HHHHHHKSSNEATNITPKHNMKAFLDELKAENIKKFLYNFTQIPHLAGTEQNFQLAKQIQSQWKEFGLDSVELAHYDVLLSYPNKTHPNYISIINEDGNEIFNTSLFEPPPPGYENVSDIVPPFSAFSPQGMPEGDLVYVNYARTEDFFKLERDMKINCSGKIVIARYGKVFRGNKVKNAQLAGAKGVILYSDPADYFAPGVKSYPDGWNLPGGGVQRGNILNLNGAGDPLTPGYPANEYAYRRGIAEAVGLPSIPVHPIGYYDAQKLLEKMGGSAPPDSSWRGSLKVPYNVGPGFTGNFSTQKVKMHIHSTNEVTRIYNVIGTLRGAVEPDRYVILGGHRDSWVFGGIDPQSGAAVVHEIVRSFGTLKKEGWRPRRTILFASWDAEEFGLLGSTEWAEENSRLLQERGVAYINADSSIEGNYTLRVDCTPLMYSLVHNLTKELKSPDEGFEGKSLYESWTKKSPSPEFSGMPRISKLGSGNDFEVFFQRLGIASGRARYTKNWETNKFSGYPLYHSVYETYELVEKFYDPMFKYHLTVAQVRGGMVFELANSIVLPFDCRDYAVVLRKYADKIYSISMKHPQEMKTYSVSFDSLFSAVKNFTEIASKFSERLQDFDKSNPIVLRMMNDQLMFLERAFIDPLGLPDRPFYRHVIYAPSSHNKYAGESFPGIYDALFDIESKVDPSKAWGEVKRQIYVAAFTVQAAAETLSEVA
# PROCEDURE SUMMARY: SPR Biacore T-200, 37 C, antibody-capture (anti-human Fc), 6h.hPSMA as analyte
Entry rule: numbers only, all in nM.

Below, each entry is followed by its recorded Kd result.
H1H11800P2 (antibody, human IgG1, V domains shown, human IgG1) VH: QVQLVESGGGVVQPGRSLRLSCAASGFTFSSYGMHWVRQAPGKGLEWVAVISYAGNNKYYVDSVKGRFTISRDNSKNTLYLQMNSLRAEDTAVYYCAKDPYYDFLTGSDYFDYWGQGTLVTVSS VL: DIQMTQSPSSLSASVGDSVTITCRASQSINNYLNWYQQKPGKAPKLLIYTASSLLSGVPSRFSGSGSGTDFTLTISGLHPEDFATYFCQQSFSTPPITFGQGTRLDIK : 0.163
H1H11836P2 (antibody, human IgG1, V domains shown, human IgG1) VH: QVQLVESGGGVVQPGRSLRLSCAASGFTFRSYGMHWVRQAPGKGLEWVAFISYDESNKHQADSVKGRFTISRDNSKNTLYLQMNSLRAEDTAVYFCAKDQYYDFLTAYDTLDYWGQGTLVTVSS VL: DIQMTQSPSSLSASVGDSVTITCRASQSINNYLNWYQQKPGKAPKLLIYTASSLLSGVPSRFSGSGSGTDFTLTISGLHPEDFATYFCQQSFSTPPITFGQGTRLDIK : 0.855
H1H11803P2 (antibody, human IgG1, V domains shown, human IgG1) VH: QVQLVESGGGVVQPGRSLRLSCAASGFTFSSYGMHWVRQAPGKGLEWVAVIWYDGNNKYYADSVKGRFTISRDNSKKTLYLQMTSLRAEDTAVYYCARDQYYDILTADNTLDYWGQGTLVTVSS VL: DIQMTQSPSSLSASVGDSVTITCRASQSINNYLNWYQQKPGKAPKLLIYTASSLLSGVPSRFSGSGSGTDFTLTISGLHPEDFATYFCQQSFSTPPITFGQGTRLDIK : 1.33

Record H1H11797P2 (antibody, human IgG1, V domains shown, human IgG1) VH: QVQLVESGGGVVQPGRSLRLSCAASGFSFSGYGMHWVRQAPGKGLEWVAVTWYDGSNKYYADSVKGRFTISRDNSKNTLYLQMNSLRAEDTAVYYCARDGNWGGPYWYFDLWGRGTLVTVSS VL: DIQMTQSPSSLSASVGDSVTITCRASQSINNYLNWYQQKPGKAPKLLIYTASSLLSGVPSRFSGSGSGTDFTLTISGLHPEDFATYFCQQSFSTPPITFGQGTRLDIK , field Kd: 3.74

Reference source for all entries: patent US20190127480A1
